Target: NAMPT (Homo sapiens)
Sequence (P43490 whole entry): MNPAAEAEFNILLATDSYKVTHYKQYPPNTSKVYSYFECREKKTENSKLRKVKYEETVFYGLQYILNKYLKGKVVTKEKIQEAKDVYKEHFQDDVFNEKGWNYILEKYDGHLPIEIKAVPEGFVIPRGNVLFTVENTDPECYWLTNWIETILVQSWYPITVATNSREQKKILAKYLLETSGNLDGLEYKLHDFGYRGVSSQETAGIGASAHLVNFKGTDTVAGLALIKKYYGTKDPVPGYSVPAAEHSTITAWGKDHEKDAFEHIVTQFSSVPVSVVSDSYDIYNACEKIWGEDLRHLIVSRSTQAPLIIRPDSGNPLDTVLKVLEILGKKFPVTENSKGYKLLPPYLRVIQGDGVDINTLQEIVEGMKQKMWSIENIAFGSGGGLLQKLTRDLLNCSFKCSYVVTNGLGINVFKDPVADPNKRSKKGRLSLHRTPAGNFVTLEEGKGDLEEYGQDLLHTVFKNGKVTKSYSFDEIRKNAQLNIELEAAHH
Test: TR-FRET Binding Assay of NAMPT with PRPP
Conditions: 2 nM NAMPT, 2 nM probe, 200 µM PRPP and 2.5 mM ATP, equilibrated 16 hours
property measured: IC50 (nM)

Example entries begin here.
The compound listed as CCCCC(=O)N1CC(c2ccc(NC(=O)N3CC(c4cccnc4)C3)cc2)C1 [Example 198] has a reported IC50 of 0.341

The compound listed as O=C(Nc1ccc(O[C@@H]2CCN(C(=O)C3CCCC3)C2)cc1)N1CC(c2cccnc2)C1 [Example 334] has a reported IC50 of 0.449

(P) CCCCN1CCC(c2ccc(NC(=O)N3CC(c4cccnc4)C3)cc2)CC1 [Example 240]
(Q) CCCC(=O)N1CCC(Oc2ccc(NC(=O)N3CC(c4cccnc4)C3)cc2)CC1 [Example 43]
IN: Of P and Q , which one carries the higher reported IC50? Pick one and reply with its label.
OUT: P
